Cited source for all entries: paper PMC6476888

Tested on: HCT116^+/+
Assay: Antiproliferative assay (MTS, 72 h) on HCT116 wild type
Format: cell-based, human
Conditions: MTS, 72 h incubation; read-out: Activity IC50 HCT116^+/+
Provide the reported IC50 of each item.

Take a look at these entries with their results.
entry_smiles	IC50
COc1ccccc1NC(=O)c1ccc2ccccc2c1O	> 25 µM
Cc1ccc(NC(=O)c2ccc3ccccc3c2O)cc1	> 25 µM
O=C(Nc1c(Br)cc(Br)cc1Br)c1ccc2ccccc2c1O	> 25 µM
Cc1ccccc1NC(=O)c1ccc2ccccc2c1O	> 25 µM
O=C(Nc1ccc(Cl)cc1C(F)(F)F)c1ccc2ccccc2c1O	> 25 µM

Each compound below has a reported value. Please supply its IC50.
1. Cc1cccc(NC(=O)c2ccc3ccccc3c2O)c1
2. O=C(Nc1c(Br)cccc1Br)c1ccc2ccccc2c1O

> 25 µM
> 25 µM

----------
Please provide measured pIC50 for the entries that follow.
Tested on: HCT116^+/+
Assay: Antiproliferative assay (MTS, 72 h) on HCT116 wild type
Format: cell-based, human
Settings: MTS, 72 h incubation; read-out: Activity IC50 HCT116^+/+
pIC50: −log10 of the molar value.

Some entries whose results are on file:
entry_smiles	pIC50
O=C(Nc1ccccc1F)c1ccc2ccccc2c1O	< 4.60
O=C(Nc1ccccc1C(F)(F)F)c1ccc2ccccc2c1O	< 4.60
O=C(Nc1ccc(C(F)(F)F)cc1[N+](=O)[O-])c1ccc2ccccc2c1O	< 4.60
COc1ccc(NC(=O)c2ccc3ccccc3c2O)cc1	< 4.60
O=C(Nc1c(Cl)cccc1Cl)c1ccc2ccccc2c1O	< 4.60

Using the record for O=C(Nc1ccc(Br)cc1C(F)(F)F)c1ccc2ccccc2c1O , state its measured pIC50.
< 4.60
